System: PC-3 prostate
test.details: NCI tumour cell line growth inhibition, 48 h
I'd appreciate it if you could supply TGI values for the items below.

>  <compound>
CC(C)(C)NC(=O)[C@H]1C[C@H]2CCCC[C@H]2CN1C[C@@H](O)[C@H](Cc1ccccc1)NC(=O)[C@H](CC(N)=O)NC(=O)c1ccc2ccccc2n1

>  <quantity.name>
TGI

>  <result>
26.8 µM

$$$$
>  <compound>
COc1ccc(C2CC(n3nnnc3-c3ccccc3)=NN2)cc1 (stereo unspecified)

>  <quantity.name>
TGI

>  <result>
72.3 µM

$$$$
>  <compound>
c1nnc(NCNc2nncs2)s1

>  <quantity.name>
TGI

>  <result>
> 100 µM

$$$$
>  <compound>
C=C1C(=O)O[C@H]2C[C@@]3(C)[C@H](O)CCC(=C)[C@@H]3[C@@H](OC(C)=O)[C@H]12

>  <quantity.name>
TGI

>  <result>
37.3 µM

$$$$
>  <compound>
Cc1sc2ccccc2[n+]1CCC(=O)O

>  <quantity.name>
TGI

>  <result>
> 100 µM

$$$$

Hey, can you go through the list below and give me TGI for every item?
1. O=c1oc2ccc(Cl)cc2cc1-c1cn2cc(Cl)ccc2n1
2. CCc1c(C)c(C#N)c(=S)n(C2OC(CO)C(O)C(O)C2O)c1C (stereo unspecified)

OUT:
["> 100 µM", "> 100 µM"]

Please state, for each entry, its recorded TGI.
1. COc1ccc(/C=C2\N=C(c3ccccc3)N(C3Nc4cc5c(cc4S3)NC(N3C(=O)/C(=C/c4ccc(OC)cc4)N=C3c3ccccc3)S5)C2=O)cc1 (stereo unspecified)
2. O=Cc1ccc(-c2cccs2)s1
3. O=C(N[C@H]1c2ccsc2/C(=N/O)[C@H]1O)C(F)(F)F
4. N#C[C@@H]1C(n2ccc(N)nc2=O)O[C@H](CO)[C@H]1O (stereo partly specified)

OUT:
1: > 100 µM; 2: > 100 µM; 3: > 100 µM; 4: > 100 µM

====

Exercise: for every item that follows, state its recorded TGI.
System: SF-268 CNS
test.details: NCI tumour cell line growth inhibition, 48 h

Worked cases, answers included:
>  <molecule>
Cc1ccc(C(=O)/C(C#N)=C/Nc2c(C)n(C)n(-c3ccccc3)c2=O)cc1

>  <quantity.name>
TGI

>  <result>
> 100 µM

$$$$
>  <molecule>
CCOc1ccccc1NC(=O)CCc1nc(=S)[nH][nH]1

>  <quantity.name>
TGI

>  <result>
> 100 µM

$$$$
>  <molecule>
c1ccc2c(c1)nc1n2CCSC1

>  <quantity.name>
TGI

>  <result>
> 100 µM

$$$$
>  <molecule>
CCN(CC)C1CC(n2cc(C)c(=O)[nH]c2=O)OC1CO (stereo unspecified)

>  <quantity.name>
TGI

>  <result>
> 100 µM

$$$$
>  <molecule>
Cn1nc(S(N)(=O)=O)s/c1=N/C(N)=S

>  <quantity.name>
TGI

>  <result>
> 100 µM

$$$$
>  <molecule>
CCN(CCNc1ccc(C)c2sc3ccccc3c(=O)c12)CC(C)(C)O

>  <quantity.name>
TGI

>  <result>
32.2 µM

$$$$
>  <molecule>
O=C1c2ccccc2-n2c1nc1ccccc1c2=O

>  <quantity.name>
TGI

>  <result>
> 100 µM

$$$$
>  <molecule>
COC(=O)C1(Cc2ccccc2)Cc2ccccc2C1

>  <quantity.name>
TGI

>  <result>
> 100 µM

$$$$

Provide reported TGI for each item, in the same order as listed.
1. O=[N+]([O-])c1nccn1COCCBr
2. COC(=O)CCCCCN=Cc1c(O)c(O)c(C(C)C)c2cc(C)c(-c3c(C)cc4c(C(C)C)c(O)c(O)c(C=NCCCCCC(=O)OC)c4c3O)c(O)c12

OUT:
1. > 100 µM
2. > 32.5 µM
